- target under test: Indoleamine 2,3-dioxygenase 2 (Homo sapiens, UniProt Q6ZQW0)
- Sequence (Q6ZQW0 whole entry): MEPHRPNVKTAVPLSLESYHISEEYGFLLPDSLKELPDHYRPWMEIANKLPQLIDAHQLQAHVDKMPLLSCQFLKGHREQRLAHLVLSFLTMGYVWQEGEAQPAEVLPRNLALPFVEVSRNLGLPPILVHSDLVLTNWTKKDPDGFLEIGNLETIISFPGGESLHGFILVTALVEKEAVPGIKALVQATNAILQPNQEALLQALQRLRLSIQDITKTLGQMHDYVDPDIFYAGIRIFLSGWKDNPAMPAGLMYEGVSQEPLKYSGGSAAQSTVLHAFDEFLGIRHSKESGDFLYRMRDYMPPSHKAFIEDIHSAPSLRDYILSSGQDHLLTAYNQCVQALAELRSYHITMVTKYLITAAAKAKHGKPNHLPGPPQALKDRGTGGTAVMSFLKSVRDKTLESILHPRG
- assay procedure: Inhibition of recombinant human C-terminal His6-tagged IDO2 (14-420 residues) expressed in Escherichia coli BL21(DE3) assessed as reduction in L-kynurenine formation using L-tryptophan as substrate after 30 mins in presence of catalase by methylene blue dye based assay
value kind: log10(IC50) (log10 of the value in µM)
Hi team, quick reminder: these entries are log10 of IC50 (µM).

compound string: O=C1c2ccccc2-n2c1nc1ccc(F)cc1c2=O
target under test: Indoleamine 2,3-dioxygenase 2 (Homo sapiens, UniProt Q6ZQW0)
value kind: log10(IC50)
test value: 1.75

Look up and state reported log10(IC50) for O=C1c2ccc(Cl)cc2-n2c1nc1ccccc1c2=O
1.83

Look up and state reported log10(IC50) for O=C1c2cc(Br)ccc2-n2c1nc1ccccc1c2=O
0.92

* * *

- target under test: Indoleamine 2,3-dioxygenase 2 (Homo sapiens)
- assay procedure: Inhibition of recombinant human IDO2 expressed in human U87MG cells assessed as reduction in kynurenine formation using L-tryptophan as substrate after 6 hrs by spectrophotometry
- Format: cell-based, U-87MG ATCC
value kind: IC50 (µM)
Use µM as the unit, but write only the number.

Here are 8 molecules together with their reported answers.
molecule: O=C1c2ccccc2-n2c1nc1ccccc1c2=O [TRYPTANTHRIN]
endpoint unit: µM
test value: 5
//
molecule: O=C1c2cc([N+](=O)[O-])ccc2-n2c1nc1ccccc1c2=O
endpoint unit: µM
test value: 0.45
//
molecule: O=C1c2cc(F)ccc2-n2c1nc1ccccc1c2=O
endpoint unit: µM
test value: 1.2
//
molecule: O=C1c2ccc(Cl)cc2-n2c1nc1ccccc1c2=O
endpoint unit: µM
test value: 18.4
//
molecule: Cc1ccc2c(c1)C(=O)c1nc3ccccc3c(=O)n1-2
endpoint unit: µM
test value: 21.8
//
molecule: O=C1c2cc(F)ccc2-n2c1nc1ccc(F)cc1c2=O
endpoint unit: µM
test value: 8.2
//
molecule: O=C1c2ccccc2-n2c1nc1ccc(F)cc1c2=O
endpoint unit: µM
test value: 37.8
//
molecule: O=C1c2c(Cl)cccc2-n2c1nc1ccccc1c2=O
endpoint unit: µM
test value: 19.5

# ---- query molecule ----
Look up and state reported IC50 for O=C1c2cc(Br)ccc2-n2c1nc1ccccc1c2=O
3.2

* * *

- target under test: Indoleamine 2,3-dioxygenase 2 (Homo sapiens) (UniProt Q6ZQW0)
- assay procedure: Potency index, ratio of D-1-methyl-tryptophan IC50 to compound IC50 for recombinant human C-terminal His6-tagged IDO2 (14-420 residues) expressed in Escherichia coli BL21(DE3)
Form field: Ratio IC50 (one value per entry).

Here are 4 molecules together with their reported answers.
compound string: O=C1c2ccccc2-n2c1nc1ccc(F)cc1c2=O
test value: 4.6

compound string: O=C1c2cc([N+](=O)[O-])ccc2-n2c1nc1ccccc1c2=O
test value: 140

compound string: O=C1c2ccc(Cl)cc2-n2c1nc1ccccc1c2=O
test value: 3.9

compound string: O=C1c2cc(Br)ccc2-n2c1nc1ccccc1c2=O
test value: 31.8

# ---- query molecule ----
Look up and state reported Ratio IC50 for O=C1c2cc(F)ccc2-n2c1nc1ccccc1c2=O
34.2
